biological target: BRD4 (BDI_K57-E168) (Homo sapiens); construct: BD1: amino acids K57-E168; test: TR-FRET bromodomain binding assay, BRD4 first bromodomain; details: His-tagged BD1, 100 nM Alexa647 probe; assay protocol D or F as given per row in c1; Ki calculated from IC50
Readout Type: Ki (nM)

Example cases with answers are listed next.
Cn1cc2c3c(c[nH]c(=O)c31)CN(c1ccc(F)cc1)c1ccc(NC(=O)CCCC(=O)Nc3ccccc3)cc1-2: 2.2
Cn1cc2c3c(c[nH]c(=O)c31)CN(c1ccc(F)cc1)c1ccc(NS(=O)(=O)c3ccccc3)cc1-2: 0.27
Cn1cc2c3c(c[nH]c(=O)c31)CN(c1ccc(F)cc1)c1ncc(NC(=O)Cc3cc(F)ccc3Cl)cc1-2: 1.43
CCS(=O)(=O)Nc1ccc2c(c1)-c1cn(C)c3c(=O)[nH]cc(c13)CN2c1ccc(F)cc1: 2.18

P: COC(=O)CCCNc1ccc2c(c1)-c1cn(C)c3c(=O)[nH]cc(c13)CN2c1ccc(F)cc1
Q: Cn1cc2c3c(c[nH]c(=O)c31)CN(c1ccc(F)cc1F)c1ncc(N)cc1-2
Lookup: Which is greater in Ki, the first item P or the second item Q ? // output: label of the selected item
Found: Q

* * *

target: BRD4 (BDI_K57-E168) (Homo sapiens); construct: BD1: amino acids K57-E168; assay: TR-FRET bromodomain binding assay, BRD4 first bromodomain; settings: His-tagged BD1, 100 nM Alexa647 probe; assay protocol D or F as given per row in c1; Ki calculated from IC50
pKi: −log10 of the molar value.
Readout Type: pKi

As a guide, the following entries are already answered.
Cn1nccc1CNc1ccc2c(c1)-c1cn(C)c3c(=O)[nH]cc(c13)CN2c1ccc(F)cc1 [Example 38]: 8.82
CCS(=O)(=O)Nc1ccc2c(c1)-c1cn(C)c3c(=O)[nH]cc(c13)CN2C1CCN(C(C)=O)CC1 [Example 74]: 8.44
Cn1cc2c3c(c[nH]c(=O)c31)CN(CC1CC1)c1ccc(S(C)(=O)=O)cc1-2 [Example 2]: 7.68

A: CC(=O)Nc1cnc2c(c1)-c1cn(C)c3c(=O)[nH]cc(c13)CN2c1ccc(Cl)cc1 [Example 72]
B: Cn1cc2c3c(c[nH]c(=O)c31)CN(CC1CC1)c1ccccc1-2 [Example 11]
C: Cn1cc2c3c(c[nH]c(=O)c31)C(c1ccccc1)N(c1ccc(F)cc1)c1ccc(Cl)cc1-2 (stereo not drawn) [Example 24]
D: CCn1ccc(CNc2ccc3c(c2)-c2cn(C)c4c(=O)[nH]cc(c24)CN3c2ccc(F)cc2)n1 [Example 37]
Lookup: List items by pKi in falling order. Respond with an ordered listing of the labels, as requested.
Found: D, A, B, C

1: Cn1cc2c3c(c[nH]c(=O)c31)CN(c1ccc(F)cc1)c1ccc(NC(=O)CCN3CCCCC3)cc1-2 [Example 48]
2: CC(=O)N1CCC(N2Cc3c[nH]c(=O)c4c3c(cn4C)-c3cc(N)ccc32)CC1 [Example 73]
3: Cn1cc2c3c(c[nH]c(=O)c31)CN(c1ccc(F)cc1)c1ccc(N)cc1-2 [Example 23]
4: Cn1cc2c3c(c[nH]c(=O)c31)CN(c1ccc(Cl)cc1)c1ncc(N)cc1-2 [Example 69]
Lookup: Arrange by pKi, high to low. Write the labels in rank order as requested.
Found: 4, 3, 1, 2

A: Cn1cc2c3c(c[nH]c(=O)c31)CN(c1ccc(F)cc1)c1ccc(C(=O)NCc3cc(F)ccc3F)cc1-2 [Example 64]
B: CC(NC(=O)c1ccc2c(c1)-c1cn(C)c3c(=O)[nH]cc(c13)CN2c1ccc(F)cc1)c1ccc(F)cc1 (stereo not drawn) [Example 59]
C: Cn1cc2c3c(c[nH]c(=O)c31)CN(c1ccc(F)cc1)c1ccc(CS(C)(=O)=O)cc1-2 [Example 4]
D: Cn1cc2c3c(c[nH]c(=O)c31)CN(c1ccc(F)cc1)c1ccc(NC(=O)Cc3cc(Cl)ccc3Oc3ccccc3)cc1-2 [Example 55]
Lookup: Arrange the 4 molecules from largest to smallest pKi. Answer with the labels in sequence, matching the requested order.
Found: C, A, B, D

I: CC(=O)N1CCC(N2Cc3c[nH]c(=O)c4c3c(cn4C)-c3cc(NC(=O)Cc4cnc(C)s4)ccc32)CC1 [Example 75]
II: Cc1cc(CC(=O)Nc2ccc3c(c2)-c2cn(C)c4c(=O)[nH]cc(c24)CN3c2ccc(F)cc2)nn1C [Example 33]
III: COCCC1c2c[nH]c(=O)c3c2c(cn3C)-c2cc(CS(C)(=O)=O)ccc2N1c1ccc(F)cc1 (stereo not drawn) [Example 8]
Lookup: Hi! Can you put these in order of pKi, lowest number first? Please list each label once, in the requested order.
Found: III, I, II
(III: 8.24, I: 8.60, II: 8.83)

I: Cn1cc2c3c(c[nH]c(=O)c31)CN(c1ccc(F)cc1)c1ccc(NC(=O)Cc3ccc(Cl)cc3F)cc1-2 [Example 29]
II: Cn1cc2c3c(c[nH]c(=O)c31)CN(c1ccc(F)cc1F)c1ccc(CS(C)(=O)=O)cc1-2 [Example 5]
Lookup: Given I and given II , which shows the smaller recorded pKi? Answer by quoting the chosen item's label.
Found: I
(I: 8.52, II: 8.75)

I: Cn1cc2c3c(c[nH]c(=O)c31)CN(c1ccc(F)cc1)c1ccc(C(=O)NCc3ccccc3)cc1-2 [Example 63]
II: Cn1cc2c3c(c[nH]c(=O)c31)CN(c1ccc(F)cc1)c1ncc(NC(=O)Cc3ccc4c(c3)CCCO4)cc1-2 [Example 21]
III: Cn1cc2c3c(c[nH]c(=O)c31)CN(c1ccc(F)cc1)c1ccc(NC(=O)Cc3cc(F)ccc3Cl)cc1-2 [Example 30]
Lookup: Order field: pKi | Direction: descending (largest first) Submit the labels in the order that the ranking request calls for.
Found: II, I, III

A: Cn1cc2c3c(c[nH]c(=O)c31)CN(c1ccc(F)cc1)c1ccc(Cl)cc1-2 [Example 13]
B: Cn1cc2c3c(c[nH]c(=O)c31)CN(c1ccc(F)cc1)c1ccc(C(=O)NCc3cnn(Cc4ccccc4)c3)cc1-2 [Example 62]
Lookup: Quick one: lower pKi, A or B ? In your reply, give the label of the chosen option.
Found: A

I: CN1CCN(CC(=O)Nc2ccc3c(c2)-c2cn(C)c4c(=O)[nH]cc(c24)CN3c2ccc(F)cc2)CC1 [Example 36]
II: Cn1cc2c3c(c[nH]c(=O)c31)CN(c1ccc(F)cc1)c1ncc(N)cc1-2 [Example 14]
Lookup: Which value of pKi is smaller, the one for I or the one for II ? Let me know the label of the one you choose.
Found: II

* * *

biological target: BRD4 (BDI_K57-E168) (Homo sapiens, UniProt O60885); construct: BD1: amino acids K57-E168; assay: TR-FRET bromodomain binding assay, BRD4 first bromodomain; conditions: His-tagged BD1, 100 nM Alexa647 probe; assay protocol D or F as given per row in c1; Ki calculated from IC50
Readout Type: Ki (nM)

Guide cases for Ki, answers given:
COC(=O)N1Cc2c[nH]c(=O)c3c2c(cn3C)-c2cc(CS(C)(=O)=O)ccc21: 4.97
Cc1cc(CC(=O)Nc2cnc3c(c2)-c2cn(C)c4c(=O)[nH]cc(c24)CN3c2ccc(F)cc2)nn1C: 1.82

1: Cn1cc2c3c(c[nH]c(=O)c31)CN(c1ccc(F)cc1)c1ccc(NC(=O)Cc3ccccc3)cc1-2
2: CCS(=O)(=O)Nc1ccc2c(c1)-c1cn(C)c3c(=O)[nH]cc(c13)CN2c1ccccn1
Lookup: Could you point out whether the larger Ki belongs to 1 or to 2 ? Respond with the label that goes with your answer.
Found: 1
(1: 2.07 nM, 2: 0.83 nM)

* * *

target: BRD4 (BDII_E352-M457) (Homo sapiens); construct: protocol; experiment: TR-FRET bromodomain binding assay, BRD4 second bromodomain
pKi: −log10 of the molar value.
Readout Type: pKi

// worked examples, pKi included
Cn1cc2c3c(c[nH]c(=O)c31)CN(c1ccc(F)cc1)c1ccc(C(=O)NCc3cnn(Cc4ccccc4)c3)cc1-2: 7.48
Cn1cc2c3c(c[nH]c(=O)c31)CN(CC1CC1)c1ccccc1-2: 7.72
Cn1cc2c3c(c[nH]c(=O)c31)CN(c1ccc(F)cc1F)c1ncc(N)cc1-2: 8.15
Cn1cc2c3c(c[nH]c(=O)c31)CN(c1ccc(F)cc1)c1ccc(NC(=O)Cc3ccc(Cl)cc3F)cc1-2: 7.65
Cn1cc2c3c(c[nH]c(=O)c31)CN(c1ccc(Cl)cc1)c1ncc(N)cc1-2: 8.72

P: Cn1cc2c3c(c[nH]c(=O)c31)CN(c1ccc(F)cc1)c1ccc(NS(=O)(=O)c3ccccc3)cc1-2
Q: COC(=O)N1Cc2c[nH]c(=O)c3c2c(cn3C)-c2cc(CS(C)(=O)=O)ccc21
Lookup: Looking only at measured pKi, which entry is lower, P or Q ? I would appreciate it if you answered with the label of your choice.
Found: Q
(Q: 7.95, P: 8.51)

A: CC(=O)Nc1cnc2c(c1)-c1cn(C)c3c(=O)[nH]cc(c13)CN2c1ccc(Cl)cc1
B: Cc1cccc(CNc2ccc3c(c2)-c2cn(C)c4c(=O)[nH]cc(c24)CN3c2ccc(F)cc2)n1
Lookup: // task: argmin of pKi over [ A , B ] Refer to your chosen entry by its label in the reply.
Found: B
